# Test system: Heart
# experiment notes: Drug uptake in overnight fasted Sprague-Dawley rat heart at 0.7 to 1.4 MBq, iv at 120 mins
# Type: ADME, organism-based
# conditions used: in vivo, 2 h
outcome measure: Drug uptake (%IDKg/g)

Guide cases for Drug uptake, answers given:
O=C(O)CCCCSCCCCCCCCCCCC[18F]; 0.2815
O=C(O)CCSCCCCCCCCCCCC[18F]; 0.1069

(1) O=C(O)CCSCCCCCCCCCCCCCC[18F]
(2) O=C(O)CCSCCCC/C=C\CCCCCCCC[18F]
query: Which of the two items, 1 and 2 , has the greater recorded Drug uptake? Field: selected label. Fill in the label of the entry you choose.
result: 2

###

# System: Brain
# experiment notes: Drug uptake in overnight fasted Sprague-Dawley rat brain at 0.7 to 1.4 MBq, iv preincubated with POCA for 2 hrs before compound administration measured at 30 mins post treatment
# Assay type: ADME, organism-based
# conditions used: in vivo, 0.5 h
outcome measure: Drug uptake (%IDKg/g)

Guide cases for Drug uptake, answers given:
O=C(O)CCSCCCCCCCCCCCCCC[18F]; 0.0385
O=C(O)CCSCCCC/C=C\CCCCCCCC[18F]; 0.0368

(I) O=C(O)CCCCSCCCCCCCCCCCC[18F]
(II) O=C(O)CCSCCCCCCCCCCCC[18F]
query: Please choose the item with the lower Drug uptake value from this pair: I and II Field: selected label. Fill in the label of the entry you choose.
result: II
(II: 0.04879 %IDKg/g, I: 0.0879 %IDKg/g)

###

# Test system: Kidney
# experiment notes: Drug uptake in overnight fasted Sprague-Dawley rat kidney at 0.7 to 1.4 MBq, iv preincubated with POCA for 2 hrs before compound administration measured at 120 mins post treatment
# Type: ADME, organism-based
# conditions used: in vivo
outcome measure: Drug uptake (%IDKg/g)

O=C(O)CCCCSCCCCCCCCCCCC[18F]; 0.1554

(I) O=C(O)CCSCCCCCCCCCCCC[18F]
(II) O=C(O)CCSCCCC/C=C\CCCCCCCC[18F]
(III) O=C(O)CCSCCCCCCCCCCCCCC[18F]
query: Ascending by Drug uptake, please: list the compounds accordingly. Answer by listing the labels in the requested order.
result: II, III, I

###

# Tested on: Liver
# experiment notes: Biodistribution in overnight fasted Sprague-Dawley rat liver pellet fraction at 0.7 to 1.4 MBq, iv at 30 mins by Folch-type extraction method
# Format: ADME, organism-based
# conditions used: in vivo, 0.5 h
outcome measure: Drug uptake (%)

Guide cases for Drug uptake, answers given:
O=C(O)CCCCSCCCCCCCCCCCC[18F]; 44.72
O=C(O)CCSCCCCCCCCCCCCCC[18F]; 32.97

(a) O=C(O)CCSCCCCCCCCCCCC[18F]
(b) O=C(O)CCSCCCC/C=C\CCCCCCCC[18F]
query: Please choose the item with the lower Drug uptake value from this pair: a and b Field: selected label. Fill in the label of the entry you choose.
result: a
(a: 38.21%, b: 71.69%)

###

# Test system: Heart
# experiment notes: Biodistribution in overnight fasted Sprague-Dawley rat heart aqueous fraction at 0.7 to 1.4 MBq, iv at 30 mins by Folch-type extraction method
# Assay type: ADME, organism-based
# conditions used: in vivo, 0.5 h
outcome measure: Drug uptake (%)

O=C(O)CCCCSCCCCCCCCCCCC[18F]; 4.02
O=C(O)CCSCCCCCCCCCCCCCC[18F]; 3.97
O=C(O)CCSCCCCCCCCCCCC[18F]; 2.63
O=C(O)CCSCCCC/C=C\CCCCCCCC[18F]; 2.86

###

# Test system: Muscle tissue
# experiment notes: Biodistribution in overnight fasted Sprague-Dawley rat muscle organic fraction at 0.7 to 1.4 MBq, iv preincubated with POCA for 2 hrs before compound administration measured at 120 mins post treatment by Folch-type extraction method
# Assay type: ADME, organism-based
# conditions used: in vivo
outcome measure: Drug uptake (%)

O=C(O)CCSCCCCCCCCCCCC[18F]; 48.14
O=C(O)CCCCSCCCCCCCCCCCC[18F]; 59.27
O=C(O)CCSCCCC/C=C\CCCCCCCC[18F]; 53.25
O=C(O)CCSCCCCCCCCCCCCCC[18F]; 58.25

###

# Tested on: Kidney
# experiment notes: Drug uptake in overnight fasted Sprague-Dawley rat kidney at 0.7 to 1.4 MBq, iv at 120 mins
# Assay type: ADME, organism-based
# conditions used: in vivo, 2 h
outcome measure: Drug uptake (%IDKg/g)

Guide cases for Drug uptake, answers given:
O=C(O)CCSCCCCCCCCCCCC[18F]; 0.1014
O=C(O)CCSCCCC/C=C\CCCCCCCC[18F]; 0.1244

(P) O=C(O)CCCCSCCCCCCCCCCCC[18F]
(Q) O=C(O)CCSCCCCCCCCCCCCCC[18F]
query: Please choose the item with the lower Drug uptake value from this pair: P and Q Field: selected label. Fill in the label of the entry you choose.
result: Q
(Q: 0.0726 %IDKg/g, P: 0.1629 %IDKg/g)

###

# Tested on: Heart
# experiment notes: Biodistribution in overnight fasted Sprague-Dawley rat heart organic fraction at 0.7 to 1.4 MBq, iv at 120 mins by Folch-type extraction method
# Assay type: ADME, organism-based
# conditions used: in vivo, 2 h
outcome measure: Drug uptake (%)

Guide cases for Drug uptake, answers given:
O=C(O)CCSCCCC/C=C\CCCCCCCC[18F]; 9.34
O=C(O)CCSCCCCCCCCCCCCCC[18F]; 26.14

(a) O=C(O)CCSCCCCCCCCCCCC[18F]
(b) O=C(O)CCCCSCCCCCCCCCCCC[18F]
query: Which of the two items, a and b , has the greater recorded Drug uptake? Field: selected label. Fill in the label of the entry you choose.
result: b
(b: 28.56%, a: 18.88%)

###

# Tested on: Kidney
# experiment notes: Drug uptake in overnight fasted Sprague-Dawley rat kidney at 0.7 to 1.4 MBq, iv preincubated with POCA for 2 hrs before compound administration measured at 30 mins post treatment
# Format: ADME, organism-based
# conditions used: in vivo, 0.5 h
outcome measure: Drug uptake (%IDKg/g)

O=C(O)CCSCCCCCCCCCCCCCC[18F]; 0.235
O=C(O)CCSCCCCCCCCCCCC[18F]; 0.2477

(1) O=C(O)CCCCSCCCCCCCCCCCC[18F]
(2) O=C(O)CCSCCCC/C=C\CCCCCCCC[18F]
query: Please choose the item with the lower Drug uptake value from this pair: 1 and 2 Field: selected label. Fill in the label of the entry you choose.
result: 2

Values from ChEMBL document CHEMBL2177094
